These measurements were taken from paper PMC4671318.

biological target: human aldose reductase (AR) (Homo sapiens, UniProt P15121); test: X-ray crystallography; format: biochemical
ENDPOINT_LABEL: IC50 (nM)
Kindly answer with a numeric value in nM, unit omitted.

Supply reported IC50 belonging to this compound: O=C(O)COc1cc(F)ccc1C(=S)NCc1ccc(Br)cc1F
124
